- Test system: NCI-H1395
- measurement_notes: relative viability (nuclei count vs DMSO), 5 days (fraction); higher = more cells survive
- assay_conditions: first compound 20 µM
Recorded relative viability for the following molecules

molecule: Cc1csc(=NC2CCCCC2)n1/N=C/c1ccc(O)c(O)c1O [MIM1] + Nc1nc2[nH]cc(CCc3ccc(C(=O)N[C@@H](CCC(=O)O)C(=O)O)cc3)c2c(=O)[nH]1 [Pemetrexed] (partner 0.2 µM)
target_of_assay: NCI-H1395
relative viability: 0.341
//
molecule: Cc1csc(=NC2CCCCC2)n1/N=C/c1ccc(O)c(O)c1O [MIM1] + C[C@]1(O)C[C@@H](c2nc(-c3ccc4ccc(-c5ccccc5)nc4c3)c3c(N)nccn32)C1 [Linsitinib] (partner 1 µM)
target_of_assay: NCI-H1395
relative viability: 0.355
//
molecule: Cc1csc(=NC2CCCCC2)n1/N=C/c1ccc(O)c(O)c1O [MIM1] + CS(=O)(=O)N1CCN(Cc2cc3nc(-c4cccc5[nH]ncc45)nc(N4CCOCC4)c3s2)CC1 [Pictilisib] (partner 1 µM)
target_of_assay: NCI-H1395
relative viability: 0.365
//
molecule: Cc1csc(=NC2CCCCC2)n1/N=C/c1ccc(O)c(O)c1O [MIM1] + CC(=O)Nc1cccc(-n2c(=O)n(C3CC3)c(=O)c3c(Nc4ccc(I)cc4F)n(C)c(=O)c(C)c32)c1 [Trametinib] (partner 0.02 µM)
target_of_assay: NCI-H1395
relative viability: 0.54
//
molecule: Cc1csc(=NC2CCCCC2)n1/N=C/c1ccc(O)c(O)c1O [MIM1] + NC(=O)Nc1cc(-c2cccc(F)c2)sc1C(=O)N[C@H]1CCCNC1 [AZD7762] (partner 0.2 µM)
target_of_assay: NCI-H1395
relative viability: 0.337
//
molecule: Cc1csc(=NC2CCCCC2)n1/N=C/c1ccc(O)c(O)c1O [MIM1] + CC1(C)CCC(c2ccc(Cl)cc2)=C(CN2CCN(c3ccc(C(=O)NS(=O)(=O)c4ccc(N[C@H](CCN5CCOCC5)CSc5ccccc5)c(S(=O)(=O)C(F)(F)F)c4)cc3)CC2)C1 [Navitoclax] (partner 0.5 µM)
target_of_assay: NCI-H1395
relative viability: 0.425

###

- Tested on: HCC-366
- measurement_notes: relative viability (nuclei count vs DMSO), 5 days (fraction); higher = more cells survive
- assay_conditions: first compound 0.06325 µM

compound: CCNC(=O)c1noc(-c2cc(C(C)C)c(O)cc2O)c1-c1ccc(CN2CCOCC2)cc1 [Luminespib] + Cc1nc(NC(=O)N2CCC[C@H]2C(N)=O)sc1-c1ccnc(C(C)(C)C(F)(F)F)c1 [Alpelisib] (partner 2 µM)
target_of_assay: HCC-366
relative viability: 0.0181
--
compound: CCNC(=O)c1noc(-c2cc(C(C)C)c(O)cc2O)c1-c1ccc(CN2CCOCC2)cc1 [Luminespib] + N=C(N)NC(=N)NCCc1ccccc1 [Phenformin] (partner 250 µM)
target_of_assay: HCC-366
relative viability: 0.0486
--
compound: CCNC(=O)c1noc(-c2cc(C(C)C)c(O)cc2O)c1-c1ccc(CN2CCOCC2)cc1 [Luminespib] + CC(=O)Nc1cccc(-n2c(=O)n(C3CC3)c(=O)c3c(Nc4ccc(I)cc4F)n(C)c(=O)c(C)c32)c1 [Trametinib] (partner 0.02 µM)
target_of_assay: HCC-366
relative viability: 0.026
--
compound: CCNC(=O)c1noc(-c2cc(C(C)C)c(O)cc2O)c1-c1ccc(CN2CCOCC2)cc1 [Luminespib] + Cc1cc(Nc2cc(N3CCN(C)CC3)nc(Sc3ccc(NC(=O)C4CC4)cc3)n2)n[nH]1 [Tozasertib] (partner 0.1 µM)
target_of_assay: HCC-366
relative viability: 0.228

Values from the supplement of paper PMC10307832
